# credit: patent US9301910B2

Experiment: Miscibility of alkyl ketal esters with water
Type: physicochemical
Conditions: parts of ester, balance to 100 parts is water (1 per 99, 2.5 in 97.5, 5 per 95)
reported endpoint: miscible in water to the extent of (parts)

Consider the worked cases shown below.
molecule: CCCOC(=O)CCC1(C)OCC(CO)O1 (stereo not shown)
miscible in water to the extent of / parts: 1
//
molecule: CCOC(=O)CCC1(C)OCC(C)O1 (stereo not shown)
miscible in water to the extent of / parts: 2.5

1. CCOC(=O)CCC1(C)OCCO1
2. CCCCOC(=O)CCC1(C)OCC(CO)O1 (stereo not shown) [Bu-LGK, glycerol ketal of butyl levulinate]
[in] Please state the entry with greater miscible in water to the extent of among 1 and 2 . Could you answer with the label of the item you picked?
[out] 1
(1: 5 parts, 2: 1 parts)
